The measurements presented in this section are drawn from patent US20210147507A1.

# EXPERIMENTAL SYSTEM: chimeric Caspase-9 polypeptide
# Sequence (P62942 2-108 F37V limits assumed): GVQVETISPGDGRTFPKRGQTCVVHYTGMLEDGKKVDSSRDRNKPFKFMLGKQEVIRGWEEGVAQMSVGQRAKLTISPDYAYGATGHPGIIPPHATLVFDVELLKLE
# ASSAY NAME: Caspase-9 mutant classes and basal activity (Table 5)
# Assay type: cell-based
# CONDITION NOTES: Caspase-9 mutant class; ligand IC50 compared with unmodified chimeric Caspase-9

>  <MOLECULE>
F406A (protein) GFGDVGALESLRGNADLAYILSMEPCGHCLIINNVNFCRESGLRTRTGSNIDCEKLRRRFSSLHFMVEVKGDLTAKKMVLALLELARQDHGALDCCVVVILSHGCQASHLQFPGAVYGTDGCPVSVEKIVNIFNGTSCPSLGGKPKLFFIQACGGEQKDHGFEVASTSPEDESPGSNPEPDATPFQEGLRTFDQLDAISSLPTPSDIFVSYSTFPGFVSWRDPKSGSWYVETLDDIFEQWAHSEDLQSLLLRVANAVSVKGIYKQMPGCFNALRKKLFFKTSASRA

>  <IC50>
higher IC50

$$$$
>  <MOLECULE>
D330V (protein) GFGDVGALESLRGNADLAYILSMEPCGHCLIINNVNFCRESGLRTRTGSNIDCEKLRRRFSSLHFMVEVKGDLTAKKMVLALLELARQDHGALDCCVVVILSHGCQASHLQFPGAVYGTDGCPVSVEKIVNIFNGTSCPSLGGKPKLFFIQACGGEQKDHGFEVASTSPEDESPGSNPEPDATPFQEGLRTFDQLVAISSLPTPSDIFVSYSTFPGFVSWRDPKSGSWYVETLDDIFEQWAHSEDLQSLLLRVANAVSVKGIYKQMPGCFNFLRKKLFFKTSASRA

>  <IC50>
higher IC50

$$$$
>  <MOLECULE>
D330E (protein) GFGDVGALESLRGNADLAYILSMEPCGHCLIINNVNFCRESGLRTRTGSNIDCEKLRRRFSSLHFMVEVKGDLTAKKMVLALLELARQDHGALDCCVVVILSHGCQASHLQFPGAVYGTDGCPVSVEKIVNIFNGTSCPSLGGKPKLFFIQACGGEQKDHGFEVASTSPEDESPGSNPEPDATPFQEGLRTFDQLEAISSLPTPSDIFVSYSTFPGFVSWRDPKSGSWYVETLDDIFEQWAHSEDLQSLLLRVANAVSVKGIYKQMPGCFNFLRKKLFFKTSASRA

>  <IC50>
higher IC50

$$$$
